SYSTEM: human TNFα (human, UniProt P01375 77-233)
Sequence (P01375 77-233 limits assumed): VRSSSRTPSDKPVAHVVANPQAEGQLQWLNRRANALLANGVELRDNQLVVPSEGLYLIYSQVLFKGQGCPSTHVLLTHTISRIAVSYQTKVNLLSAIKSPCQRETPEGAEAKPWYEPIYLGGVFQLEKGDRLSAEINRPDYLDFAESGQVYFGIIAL
PROTOCOL_TEXT: cell-based or functional assay
Below, each entry is listed alongside its reported EC50 in nM (mean); L929s + Act D cytotoxicity assay, human TNFa @ 0.5 ng/ml.
EXPERIMENTAL_READOUT: EC50 in nM (mean); L929s + Act D cytotoxicity assay, human TNFa @ 0.5 ng/ml (nM)

INSERT INTO results (binder, measured_number) VALUES
  ('TNF19 (TNF2 HUM5) (VHH, Humanised TNF2, first round) VHH: EVQLVESGGGLVQPGGSLRLSCAASGRTFSEPSGYTYTIGWFRQAPGKGREFVARIYWSSGLTYYADSVKGRFTISRDIAKNTVDLQMNSLKPEDTAVYYCAARDGIPTSRSVGSYNYWGQGTLVTVSS', 2.19),
  ('TNF15 (TNF2 HUM1) (VHH, Humanised TNF2, first round) VHH: EVQLVESGGGLVQPGGSLRLSCAASGRTFSEPSGYTYTIGWFRQAPGKGREFVARIYWSSGLTYYADSVKGRFTISRDIAKNTVDLQMNSLKPEDTAVYYCAARDGIPTSRSVGSYNYWGQGTQVTVSS', 1.67),
  ('PMP1G5 (TNF2) (VHH, also called WT TNF2; not shown: C-terminal c-myc tag and (His)6 tag coded by vector pAX051) VHH: QVQLVESGGGLVQAGGSLRLSCAASGRTFSEPSGYTYTIGWFRQAPGKEREFVARIYWSSGLTYYADSVKGRFTISRDIAKNTVDLLMNSLKPEDTAVYYCAARDGIPTSRSVGSYNYWGQGTQVTVSS', 1.41),
  ('TNF16 (TNF2 HUM2) (VHH, Humanised TNF2, first round) VHH: EVQLVESGGGLVQPGGSLRLSCAASGFTFSEPSGYTYTIGWFRQAPGKGREFVARIYWSSGLTYYADSVKGRFTISRDIAKNTVDLQMNSLKPEDTAVYYCAARDGIPTSRSVGSYNYWGQGTQVTVSS', 1.9);

Recorded values, source patent US20200079844A1.
